# subject.of.test: UniProt Q00987
# experiment.description: MDM2 binding screen: displacement of fluorescent p53 peptide probe FP53 (fluorescence polarization)
# recorded.conditions: Acid 91; initial screen; crude macrocycle reactions
Numbered stars: 1 amine (or outer) side, 2 acyl side, 3 side chain; on linkers, the order of the positions; unused ones are H or OH. Bridge positions count the residues as written; N and C are the ends. Square brackets hold non-standard residues; d marks the D form. Peptide text beside a SMILES is read from it. * marks the point of attachment. Cysteamide = C(CS[*:3])N[*:1]; X1 = O=C(/C=C/c1ccccc1)*; Api = NC1(C(=O)O)CCNCC1; Mpa = O=C(O)CCS
property.name: fraction fluorescent probe displaced, Screen

O=C1CCSSCCNC(=O)C(Cc2c[nH]c3ccccc23)NC(=O)C2CN(C(=O)C=Cc3ccccc3)CCN2C(=O)CCN1 (stereo not drawn) [X B2 D7 W Acid 91]: 0.14

[a] O=C(C=Cc1ccccc1)NCC1NC(=O)CCSSCCNC(=O)C(Cc2c[nH]c3ccccc23)NC(=O)CCNC1=O (stereo not drawn) [X D3 B2 W Acid 91]
[b] O=C(C=Cc1ccccc1)NC1CC2C(=O)N3CCCC3C(=O)NCCSSCCC(=O)NC(Cc3ccccc3)C(=O)N2C1 (stereo not drawn) [X F D5 B1 Acid 91]
[c] O=C(C=Cc1ccccc1)NC1CC2C(=O)NC(Cc3c[nH]c4ccccc34)C(=O)NCCSSCCC(=O)NCCC(=O)N2C1 (stereo not drawn) [X B2 D5 W Acid 91]
[d] O=C1NCCSSCCC(=O)N2CCC[C@H]2C(=O)NC2(CCN(C(=O)/C=C/c3ccccc3)CC2)C(=O)N[C@H]1Cc1c[nH]c2ccccc12 [X B1 D6 W Acid 91] ([Mpa]P[Api](X1)W-Cysteamide; disulfide 1-C)
[e] O=C(C=Cc1ccccc1)NCC1NC(=O)C2CCCN(C2)C(=O)CCSSCCNC(=O)C(Cc2c[nH]c3ccccc23)NC1=O (stereo not drawn) [X B4 D3 W Acid 91]
[ask] Please put the entries in order of rising fraction fluorescent probe displaced, Screen. Write out the labels following the order that was asked for.
[reply] d, b, c, a, e

====

# subject.of.test: thrombin (Homo sapiens)
# Construct: consists of two polypeptide chains of 36 (light chain) and 259 amino acid
# experiment.description: Thrombin inhibition screen of crude macrocycle reactions (residual thrombin activity, fluorogenic substrate Z-Gly-Gly-Arg-AMC)
# Format: biochemical
# recorded.conditions: 10 µM macrocycle concentration; macrocycles containing acid 14; crude reaction; original screen
Numbered stars: 1 amine (or outer) side, 2 acyl side, 3 side chain; on linkers, the order of the positions; unused ones are H or OH. Bridge positions count the residues as written; N and C are the ends. Square brackets hold non-standard residues; d marks the D form. Peptide text beside a SMILES is read from it. * marks the point of attachment. 2Thenoyl(5-Cl) = O=C(c1ccc(Cl)s1)*; Cysteamide = C(CS[*:3])N[*:1]; Orn = NCCC[CH](N)C(=O)O; Dap = NC[CH](N)C(=O)O; Mpa = O=C(O)CCS
property.name: % thrombin activity, Original screen (%)

O=C1CCSSCCNC(=O)C(CNC(=O)c2ccc(Cl)s2)NC(=O)c2cccc(c2)CNC(=O)C(Cc2ccccc2)N1 (stereo not drawn) [M2]: 6.9
CC(C)CC1NC(=O)C2(CC2)CNC(=O)C2CC(NC(=O)c3ccc(Cl)s3)CN2C(=O)CCSSCCNC1=O (stereo not drawn) [X D5 B6 L]: 114.0
O=C1CCSSCCNC(=O)C2CCCN2C(=O)C(Cc2ccc(O)cc2)NC(=O)C(CCCNC(=O)c2ccc(Cl)s2)N1 (stereo not drawn) [X D2 Y B1] ([Mpa][Orn](2Thenoyl(5-Cl))YP-Cysteamide; disulfide 1-C; configuration not given here): 96.4
CC(C)C[C@@H]1NC(=O)[C@H](CCCNC(=O)c2ccc(Cl)s2)NC(=O)CCSSCCNC(=O)[C@H]2CCCN(C2)C1=O [X D2 L B4]: 98.3
O=C1CCSSCCNC(=O)[C@H](CNC(=O)c2ccc(Cl)s2)NC(=O)[C@@H](Cc2ccccc2)NC(=O)C2(CC2)CN1 [X B6 f D3]: 49.0

[a] CC1NC(=O)CCSSCCNC(=O)C2CCCN2C(=O)C(CNC(=O)c2ccc(Cl)s2)NC1=O (stereo not drawn) [X a D4 B1] ([Mpa]A[Dap](2Thenoyl(5-Cl))P-Cysteamide; disulfide 1-C; configuration not given here)
[b] O=C1CCSSCCNC(=O)[C@H](Cc2ccccc2)NC(=O)CCNC(=O)[C@H](CNC(=O)c2ccc(Cl)s2)N1 [X D3 B2 F]
[ask] Lab note: check whether a or b has the lower measured % thrombin activity, Original screen. Lab note: record the label of whichever item you select.
[reply] b
(b: 56.1%, a: 108.4%)

====

# subject.of.test: MDM2 (Homo sapiens, UniProt Q00987)
# Sequence (Q00987 whole entry): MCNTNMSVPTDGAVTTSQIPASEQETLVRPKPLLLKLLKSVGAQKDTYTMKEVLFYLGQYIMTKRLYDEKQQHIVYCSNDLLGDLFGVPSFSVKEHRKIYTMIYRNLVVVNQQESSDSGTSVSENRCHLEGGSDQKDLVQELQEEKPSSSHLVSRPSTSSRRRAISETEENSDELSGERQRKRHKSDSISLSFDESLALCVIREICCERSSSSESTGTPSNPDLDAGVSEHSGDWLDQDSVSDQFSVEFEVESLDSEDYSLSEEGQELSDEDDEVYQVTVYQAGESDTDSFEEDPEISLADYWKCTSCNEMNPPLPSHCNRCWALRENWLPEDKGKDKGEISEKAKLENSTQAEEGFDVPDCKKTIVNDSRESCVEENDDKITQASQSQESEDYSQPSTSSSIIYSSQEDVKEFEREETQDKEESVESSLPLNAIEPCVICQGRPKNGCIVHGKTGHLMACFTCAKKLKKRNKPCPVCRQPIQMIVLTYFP
# experiment.description: MDM2 binding screen: displacement of fluorescent p53 peptide probe FP53 (fluorescence polarization)
# recorded.conditions: Acid 25; initial screen; crude macrocycle reactions
# Description: We screened Library 2 in 384-microwell plates by dispensing the target protein MDM2 and reporter peptide into the wells containing the macrocycle reactions. The products were screened for displacement of a p53-based fluorescent peptide from human MDM2. […] For each macrocycle, the MDM2 binding was measured once. One fluorescence anisotropy reading was taken with a Tecan Infinite F200 Pro fluorescence plate reader (excitation at 485 nm, emission at 535 nm) at 25 °C. […]
Numbered stars: 1 amine (or outer) side, 2 acyl side, 3 side chain; on linkers, the order of the positions; unused ones are H or OH. Bridge positions count the residues as written; N and C are the ends. Square brackets hold non-standard residues; d marks the D form. Peptide text beside a SMILES is read from it. * marks the point of attachment. Benzoyl(4-Cl) = O=C(c1ccc(Cl)cc1)*; Cysteamide = C(CS[*:3])N[*:1]; Api = NC1(C(=O)O)CCNCC1; Mpa = O=C(O)CCS
property.name: fraction fluorescent probe displaced, Screen

Look over these answered cases.
O=C1CCSSCCNC(=O)[C@@H]2CCCN2C(=O)C2(CCN(C(=O)c3ccc(Cl)cc3)CC2)NC(=O)[C@H](Cc2c[nH]c3ccccc23)N1 [X W D6 B1 Acid 25] ([Mpa]W[Api](Benzoyl(4-Cl))P-Cysteamide; disulfide 1-C): 0.28
O=C1CCSSCCNC(=O)[C@H]2CCCN(C2)C(=O)[C@H](Cc2c[nH]c3ccccc23)NC(=O)C2(CCN(C(=O)c3ccc(Cl)cc3)CC2)N1: 0.28
O=C1CCSSCCNC(=O)[C@H](Cc2c[nH]c3ccccc23)NC(=O)[C@H]2CCCN(C2)C(=O)[C@H](CNC(=O)c2ccc(Cl)cc2)N1: 0.25

[A] O=C1NCCSSCCC(=O)N2C[C@@H](NC(=O)c3ccc(Cl)cc3)C[C@H]2C(=O)N[C@@H](Cc2ccccc2)C(=O)NCc2cccc1c2
[B] O=C1CCSSCCNC(=O)c2cccc(c2)CNC(=O)[C@H](Cc2c[nH]c3ccccc23)NC(=O)[C@H](CNC(=O)c2ccc(Cl)cc2)N1
[C] O=C(NC1CC2C(=O)NC(Cc3c[nH]c4ccccc34)C(=O)N3CCCC(C3)C(=O)NCCSSCCC(=O)N2C1)c1ccc(Cl)cc1 (stereo not drawn)
[ask] Please put the entries in order of rising fraction fluorescent probe displaced, Screen. Write out the labels following the order that was asked for.
[reply] A, C, B

====

# subject.of.test: MDM2 (Homo sapiens, UniProt Q00987)
# experiment.description: MDM2 binding screen of Libraries 3 and 4: displacement of fluorescent probe F-M8 at 750 nM macrocycle
# recorded.conditions: Panel b, Library 3: 63 scaffolds combinatorially acylated with 15 carboxylic acids at 30 picomole scale; displacement of fluorescent peptide probe; macrocycle 750 nM
property.name: fraction of fluorescent probe displaced

CC(Oc1cccc(Cl)c1)C(=O)O (stereo not drawn): -0.00533

[I] O=C(/C=C/c1ccc2ccccc2c1)NC[C@@H]1NC(=O)[C@@H]2CN(CCO2)C(=O)CCSSCCNC(=O)[C@H](Cc2c[nH]c3ccccc23)NC1=O
[II] Cn1cc(C[C@@H]2NC(=O)[C@H](CNC(=O)CCS(=O)(=O)c3ccccc3)NC(=O)C3(CC3)CNC(=O)CCSSCCNC2=O)c2ccccc21
[ask] Lab note: check whether I or II has the lower measured fraction of fluorescent probe displaced. Lab note: record the label of whichever item you select.
[reply] II

====

# subject.of.test: MDM2 (Homo sapiens, UniProt Q00987)
# experiment.description: MDM2 binding screen: displacement of fluorescent p53 peptide probe FP53 (fluorescence polarization)
# recorded.conditions: Acid 14; initial screen; crude macrocycle reactions
# Description: We screened Library 2 in 384-microwell plates by dispensing the target protein MDM2 and reporter peptide into the wells containing the macrocycle reactions. The products were screened for displacement of a p53-based fluorescent peptide from human MDM2. […] For each macrocycle, the MDM2 binding was measured once. One fluorescence anisotropy reading was taken with a Tecan Infinite F200 Pro fluorescence plate reader (excitation at 485 nm, emission at 535 nm) at 25 °C. […]
property.name: fraction fluorescent probe displaced, Screen

Look over these answered cases.
O=C1CCSSCCNC(=O)C2CN(C(=O)c3ccc(Cl)s3)CCN2C(=O)C(Cc2c[nH]c3ccccc23)NC(=O)CCN1 (mixture of isomers) [X B2 W D7 Acid 14]: 0.23
O=C1CCSSCCNC(=O)[C@H](Cc2c[nH]c3ccccc23)NC(=O)[C@H]2CCCN(C2)C(=O)[C@H](CNC(=O)c2ccc(Cl)s2)N1 [X D3 B4 W Acid 14]: 0.08
O=C1CCNC(=O)[C@H](Cc2c[nH]c3ccccc23)NC(=O)[C@H](CNC(=O)c2ccc(Cl)s2)NC(=O)CCSSCCN1 [X D3 W B2 Acid 14]: 0.23

[1] O=C1CCSSCCNC(=O)[C@H](Cc2c[nH]c3ccccc23)NC(=O)c2cccc(c2)CNC(=O)[C@H](CNC(=O)c2ccc(Cl)s2)N1 [X D3 B5 W Acid 14]
[2] O=C1CCSSCCNC(=O)C2(CCN(C(=O)c3ccc(Cl)s3)CC2)NC(=O)[C@H](Cc2ccccc2)NC(=O)CCN1 [X B2 F D6 Acid 14]
[3] O=C1CCSSCCNC(=O)C2CCCN(C2)C(=O)C2CN(C(=O)c3ccc(Cl)s3)CCN2C(=O)C(Cc2ccccc2)N1 (stereo not drawn) [X F D7 B4 Acid 14]
[ask] Put the items in sequence by fraction fluorescent probe displaced, Screen, from largest down. Write out the labels following the order that was asked for.
[reply] 1, 2, 3
(1: 0.14, 2: 0.08, 3: -0.00483)
